The origin of these recorded values is ChEMBL document CHEMBL1155968.

Tested on: Mus musculus
assay.notes: Neurotoxicity in ip dosed albino mouse assessed as minimal motor impairment after 0.5 hrs by rotarod test
Format: toxicity, organism-based
condition.description: in vivo
For each record, write down the corresponding Activity.
Numbers only, in mg/kg.

Examples from the recorded data:
Activity reading for CCOc1ccc(NC(=O)Nn2c(CC)nc3ccccc3c2=O)cc1 : 300

Activity reading for CCc1nc2ccccc2c(=O)n1NC(=O)Nc1ccccc1 : 300

Activity reading for O=C(Nc1ccc(I)cc1)Nn1c(-c2ccccc2)nc2ccccc2c1=O : 300

I would be grateful if you could provide Activity for each of the following entries.
1. O=C(Nc1ccc(Cl)cc1)Nn1c(-c2ccccc2)nc2ccccc2c1=O
2. O=C(Nc1ccc(Br)cc1)Nn1c(-c2ccccc2)nc2ccccc2c1=O
3. CCOc1ccc(NC(=O)Nn2c(-c3ccccc3)nc3ccccc3c2=O)cc1

Completion:
1: 300; 2: 300; 3: 100

I would be grateful if you could provide Activity for each of the following entries.
1. CCc1nc2ccccc2c(=O)n1NC(=O)Nc1ccc(OC)cc1
2. O=C1NC(=O)C(c2ccccc2)(c2ccccc2)N1
3. CCCC(CCC)C(=O)[O-].[Na+] [VALPROATE SODIUM]

Completion:
[300, 100, 100]

====

Tested on: Mus musculus
assay.notes: Anticonvulsant activity in ip dosed albino mouse assessed as inhibition of maximal electric shock-induced seizures after 0.5 hrs
Format: functional
Calls of active or inactive are those of the source. The rule behind the calls is not given here.
attribute.measured: Activity

Activity reading for CCc1ccc(NC(=O)Nn2c(-c3ccccc3)nc3ccccc3c2=O)cc1 : inactive

Activity reading for CCOc1ccc(NC(=O)Nn2c(-c3ccccc3)nc3ccccc3c2=O)cc1 : inactive

Activity reading for O=C(Nc1ccccc1)Nn1c(-c2ccccc2)nc2ccccc2c1=O : inactive

Activity reading for CCCC(CCC)C(=O)[O-].[Na+] [VALPROATE SODIUM] : 100 mg/kg

Activity reading for O=C(Nc1ccc(I)cc1)Nn1c(-c2ccccc2)nc2ccccc2c1=O : inactive

I would be grateful if you could provide Activity for each of the following entries.
1. CCc1nc2ccccc2c(=O)n1NC(=O)Nc1ccccc1
2. CCc1nc2ccccc2c(=O)n1NC(=O)Nc1ccc(F)cc1

Completion:
100 mg/kg
inactive

I would be grateful if you could provide Activity for each of the following entries.
1. CCc1nc2ccccc2c(=O)n1NC(=O)Nc1ccccc1C
2. O=C(Nc1ccc(Br)cc1)Nn1c(-c2ccccc2)nc2ccccc2c1=O
3. Cc1cccc(NC(=O)Nn2c(-c3ccccc3)nc3ccccc3c2=O)c1
4. COc1ccc(NC(=O)Nn2c(-c3ccccc3)nc3ccccc3c2=O)cc1

Completion:
1: inactive; 2: 100 mg/kg; 3: inactive; 4: inactive

====

System: Mus musculus
assay.notes: Behavioral activity in albino mouse assessed as decrease in locomotor activity at 100 mg/kg, ip by actophotometer
Format: functional
condition.description: route intraperitoneal
attribute.measured: inhibition in vivo at 100 mg/kg
Answer with the value and then the unit.

Examples from the recorded data:
inhibition in vivo at 100 mg/kg reading for O=C(Nc1ccccc1)Nn1c(-c2ccccc2)nc2ccccc2c1=O : 56%

inhibition in vivo at 100 mg/kg reading for O=C(Nc1ccc(F)cc1)Nn1c(-c2ccccc2)nc2ccccc2c1=O : 54%

inhibition in vivo at 100 mg/kg reading for O=C(Nc1ccc(Br)cc1)Nn1c(-c2ccccc2)nc2ccccc2c1=O : 58%

inhibition in vivo at 100 mg/kg reading for Cc1ccccc1NC(=O)Nn1c(-c2ccccc2)nc2ccccc2c1=O : 59%

inhibition in vivo at 100 mg/kg reading for O=C(Nc1ccc([N+](=O)[O-])cc1)Nn1c(-c2ccccc2)nc2ccccc2c1=O : 42%

inhibition in vivo at 100 mg/kg reading for O=C(Nc1ccc(Cl)cc1)Nn1c(-c2ccccc2)nc2ccccc2c1=O : 55%

I would be grateful if you could provide inhibition in vivo at 100 mg/kg for each of the following entries.
1. CCc1nc2ccccc2c(=O)n1NC(=O)Nc1ccc(OC)cc1
2. CCc1nc2ccccc2c(=O)n1NC(=O)Nc1ccc([N+](=O)[O-])cc1

Completion:
1. 48%
2. 41%
